Numbers sourced from patent EP4748864A1.

# EXPERIMENT: UV absorption characteristics of component (A), UV-visible spectrophotometer
# Assay type: physicochemical
# CONDITION CONTEXT: 100 µM chloroform solution, 10-mm quartz cell; 365 nm
# Method: A 100 µM chloroform solution of each benzophenone derivative was prepared and placed in a 10-mm quartz cell. The absorption spectrum was measured using a UV-visible spectrophotometer (V-550, manufactured by JASCO Corporation).
Kindly return T if reported Molar absorption coefficient at 365 nm is no lower than 3000 L/mol/cm; return F if it is lower.

Below are worked cases with known answers.
MOLECULE	CLASS ASSIGNMENT
CCCCCCCCSc1ccc(C(=O)c2ccc(SCCCCCCCC)cc2)cc1 [A-7, 4,4'-Bis(octylthio)benzophenone, reference compound]	F
Cc1ccc(Sc2ccc(C(=O)c3ccc(Sc4ccc(C)cc4C)cc3)cc2)c(C)c1 [A-11]	T
Cc1ccc(Sc2ccc(C(=O)c3ccccc3)cc2)cc1 [A-5, 4-(p-Tolylthio)benzophenone, reference compound]	F
Cc1ccc(C)c(Sc2ccc(C(=O)c3ccc(Sc4cc(C)ccc4C)cc3)cc2)c1 [A-12]	T
S=C(c1ccc(-c2ccccc2)cc1)c1ccc(-c2ccccc2)cc1 [A-1, 4,4'-Diphenylthiobenzophenone]	T
Cc1cc(C(C)(C)C)ccc1Sc1ccc(C(=O)c2ccc(Sc3ccc(C(C)(C)C)cc3C)cc2)cc1 [A-9]	T

Next:
Request: Please check the record CSc1ccc(C(=O)c2ccc(SC)cc2)cc1 [A-6, 4,4'-Bis(methylthio)benzophenone, reference compound] and state if its Molar absorption coefficient at 365 nm is at or above 3000 L/mol/cm.
Response: F

* * *

# EXPERIMENT: Heat resistance of component (A): 5% weight loss temperature by TG/DTA
# Assay type: physicochemical
# CONDITION CONTEXT: heating rate 10°C/min, 25°C to 550°C
READOUT TYPE: 5% weight loss temperature (°C)
API: value field is a number in °C; no unit string.

Please review the following examples before continuing.
COMPOUND	MEASURED
CCCCCCCCSc1ccc(C(=O)c2ccc(SCCCCCCCC)cc2)cc1 [A-7, 4,4'-Bis(octylthio)benzophenone, reference compound]	282
Cc1ccc(Sc2ccc(C(=O)c3ccccc3)cc2)cc1 [A-5, 4-(p-Tolylthio)benzophenone, reference compound]	235
CSc1ccc(C(=O)c2ccc(SC)cc2)cc1 [A-6, 4,4'-Bis(methylthio)benzophenone, reference compound]	239

Request: # input compound: S=C(c1ccc(-c2ccccc2)cc1)c1ccc(-c2ccccc2)cc1 ; wanted: its 5% weight loss temperature
Response: 314

* * *

Listed here are molecules together with their documented Maximum absorption wavelength Wavelength.
# EXPERIMENT: UV absorption characteristics of component (A), UV-visible spectrophotometer
# Assay type: physicochemical
# CONDITION CONTEXT: 100 µM chloroform solution, 10-mm quartz cell
# Procedure: A 100 µM chloroform solution of each benzophenone derivative was prepared and placed in a 10-mm quartz cell. The absorption spectrum was measured using a UV-visible spectrophotometer (V-550, manufactured by JASCO Corporation).
Report as: number unit

Below: 5 molecules and their reported Maximum absorption wavelength Wavelength.
MOLECULE	Maximum absorption wavelength Wavelength
Cc1ccc(Sc2ccc(C(=O)c3ccccc3)cc2)cc1 [A-5, 4-(p-Tolylthio)benzophenone, reference compound]	316 nm
S=C(c1ccc(-c2ccccc2)cc1)c1ccc(-c2ccccc2)cc1	326 nm
CC(C)c1ccc(Sc2ccc(C(=O)c3ccc(Sc4ccc(C(C)C)cc4)cc3)cc2)cc1	327 nm
CSc1ccc(C(=O)c2ccc(SC)cc2)cc1 [A-6, 4,4'-Bis(methylthio)benzophenone, reference compound]	323 nm
Cc1ccc(C)c(Sc2ccc(C(=O)c3ccc(Sc4cc(C)ccc4C)cc3)cc2)c1	328 nm

Request: # lookup: Maximum absorption wavelength Wavelength of Cc1cc(C(C)(C)C)ccc1Sc1ccc(C(=O)c2ccc(Sc3ccc(C(C)(C)C)cc3C)cc2)cc1
Response: 329 nm

Request: Item Cc1cccc(Sc2ccc(C(=O)c3ccc(Sc4cccc(C)c4)cc3)cc2)c1 has what recorded Maximum absorption wavelength Wavelength?
Response: 328 nm
